Kindly state pIC50 for each of the entries shown.
# Experimental system: B*3501 (Homo sapiens, UniProt P01889, A329T/A93T/A95T/C349S/D201E/D98Y/E176V/E187L/E204Q/E69T/I218V/K202T/L119I/Q94N/R155S/R180L/S121R/S35A/S48A/T118I/V127L/V306I/V36M/Y140S/Y91F)
# Test name: biochemical
Give bare numbers, as −log10 of the molar value.

>>> observed("CC[C@H](C)[C@H](NC(=O)[C@H](C)NC(=O)[C@H](CC(C)C)NC(=O)[C@H](CCC(N)=O)NC(=O)[C@@H](NC(=O)[C@H](CCC(=O)O)NC(=O)[C@H](CC(C)C)NC(=O)[C@@H]1CCCN1C(=O)[C@@H](N)CCSC)[C@@H](C)O)C(=O)O")
7.55
>>> observed("CC(C)C[C@H](N)C(=O)N1CCC[C@H]1C(=O)N[C@@H](Cc1ccccc1)C(=O)N[C@@H](CC(=O)O)C(=O)N[C@@H](Cc1ccccc1)C(=O)N[C@H](C(=O)N1CCC[C@H]1C(=O)NCC(=O)N[C@@H](Cc1ccc(O)cc1)C(=O)O)[C@@H](C)O")
8.25

Need pIC50, item CC[C@H](C)[C@H](NC(=O)[C@H](CCC(=O)O)NC(=O)[C@H](C)NC(=O)[C@@H]1CCCN1C(=O)[C@@H](N)Cc1ccc(O)cc1)C(=O)N[C@H](C(=O)N[C@@H](CC(C)C)C(=O)N[C@H](C(=O)N[C@@H](Cc1c[nH]c2ccccc12)C(=O)O)[C@@H](C)O)[C@@H](C)O
7.27

----------
# Experimental system: DRB1*1101 (Homo sapiens, UniProt P01903+P01911, A100R/A169T/A87E/I96F/K41T/L162R/M171V/P40S/Q125H/Q178H/Q39Y/Q99D/R42S/S66Y/T262R/V115G/W38E)
# Test name: biochemical
# Condition details: Binding affinity DRB1 *1101
No end group written: not given here.
I'd appreciate it if you could supply IC50 values for the items below.
Answers are plain numbers, in µM.

>>> observed("DLRVVQQLLMGALTV [Peptide 85.0092]")
0.754
>>> observed("LKVLIQPYSIYAHLQ [Peptide 89.0098]")
0.681
>>> observed("LKAICIEKQSRAAKR [Peptide 90.0032]")
0.545

// each listed sequence needs a value for IC50
1. SADDLRAFQQLFLNT [Peptide 1543.07]
2. PMCMMIEPPKLRSTA [Peptide 90.0034]
3. AFQVIELQMALETLN [Peptide 90.0024]
4. VSFLSALKLFLKGVP [Peptide 89.0053]

3.59
2.04
3.34
0.064

----------
Exercise: for every item that follows, state its recorded pIC50.
# Experimental system: HLA-A1 (A*0101) (Homo sapiens, UniProt P04439, A114D/A174V/A182V/D101N/D185E/E176A/E190D/L180R/Q94H/R68K/S129P/T187R/V100A/V91M/W191G)
# Test name: biochemical
# Assay type: binding
No end group written: not given here.
Answers are plain numbers, as −log10 of the molar value.

Example sequences with recorded pIC50:
>>> observed("MSDSQWIKY [Peptide 1593.05]")
8.00
>>> observed("CTSASNPSPQY [Peptide 9012.0170]")
6.27
>>> observed("VTDSRNTKY [Peptide 1580.30]")
7.60

// each sequence listed below needs its pIC50
1. KTGILTVTY [Peptide 86.0146]
2. SSNLQGKLY [Peptide 86.0139]

1. 6.07
2. 5.52

Just for reference, patent US9340577B2 is where these values come from.
